biological target: factor IXaPCEGF1 (factor IXa replacement mutant in which the EGF1 domain is replaced by that of protein C) (human) (UniProt P04070); assay: peptide inhibition of IXaPCEGF1:A2 in tenase assay (FIG. 5); IC50 converted by Cheng-Prusoff; apparent Kdpeptide
endpointLabel: Kd (µM)
Give the value in µM but do not write µM after it.

Request: What does the record list as Kd for SVDQRGNQ [synthetic peptide corresponding to the A2 subunit residues 558-565 (Ser-Val-Asp-Gln-Arg-Gly-Asn-Gln)] ?
Result: 4
